- experiment-summary: endothelial E-selectin expression blockers – imaging, HUVEC, immunofluorescence, MLSMR starter and 10KST1 sets, primary screen (AID 487);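 also: 100% = median nuclei count of all wells on the same plate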
- condition-details: HUVEC TNFalpha-induced E-selectin immunofluorescence imaging, at 2 µM; measured here: cell number, toxicity
Assignment: determine reported nuclei count for the given compounds.
Answers are plain numbers, in %.

Value sought for every listed compound: nuclei count.
1. CC1CN(c2nc3ccccc3nc2C(C#N)C(=O)OC2CCCCC2)CC(C)O1 (stereo unspecified)
2. CCc1nnc(NC(=O)CSc2nnc3ncccn23)s1
3. COCCNC(=O)CN(C)S(=O)(=O)c1ccc2c(c1)OCCO2
4. O=C(NCCSc1c[nH]c2ccccc12)c1ccco1
5. O=C(c1cc2nc(-c3ccco3)cc(C(F)(F)F)n2n1)N1CCN(c2ccccn2)CC1
6. CCOC(=O)C(C)Sc1nc2c(cnn2-c2ccc(C)cc2)c(=O)[nH]1 (stereo unspecified)

[111, 102, 108, 116, 107, 110]
